Where a name gives a salt, the structure may show the parent alone.
I'd be grateful if you could share measured melting point for these entries.

CCC(O)(C#Cc1nc(N)c2nc(-c3cc(F)ccc3F)n(C)c2n1)CC.Cl    147 to 148 °C

Would you mind listing melting point for each of the following compounds?
1. CCn1c(-c2cccc(F)c2F)nc2c(N)nc(C#CC(C)(C)O)nc21.Cl
2. Cn1c(-c2ccccc2F)nc2c(N)nc(C#CC3(O)CCCC3)nc21

1. 213 to 215 °C
2. 166 to 168 °C

# per-item lookup of melting point; items listed below
1. CCC(O)(C#Cc1nc(N)c2nc(-c3cc(F)cc(F)c3)n(C)c2n1)CC.Cl
2. CC(O)C#Cc1nc(N)c2nc(-c3ccco3)n(C)c2n1 (stereo not drawn)

207 to 210 °C
155 to 158 °C

Batch of 8 compounds: report melting point for each.
1. CCn1c(-c2cc(F)cc(F)c2)nc2c(N)nc(C#CC3(O)CCC3)nc21.Cl
2. Cn1c(-c2cc(F)cc(F)c2F)nc2c(N)nc(C#CC3(O)CCCC3)nc21
3. CCn1c(-c2cc(F)ccc2F)nc2c(N)nc(C#CC3(O)CCCC3)nc21.Cl
4. Cl.Nc1nc(C#CC2(O)CCC2)nc2c1nc(-c1cc(F)cc(F)c1)n2C1CC1
5. Cl.Nc1nc(C#CC2(O)CCCC2)nc2c1nc(-c1cc(F)cc(F)c1)n2C1CC1
6. Cn1c(-c2ccccc2F)nc2c(N)nc(C#CC(C)(C)O)nc21
7. CCn1c(-c2cc(F)cc(F)c2)nc2c(N)nc(C#CC3(O)CCCC3)nc21.Cl
8. Cl.Cn1c(-c2ccco2)nc2c(N)nc(C#CC3CCCCC3)nc21

["234 to 235 °C", "214 to 217 °C", "191 to 194 °C", "228 °C", "265 to 266 °C", "198 to 199 °C", "217 to 218 °C", "155 to 160 °C"]

Quick request: melting point for each listed item, please.
1. COC1CCCCC1(O)C#Cc1nc(N)c2nc(-c3cccc(F)c3)n(C)c2n1 (stereo not drawn) [Example 121]
2. CCn1c(-c2cc(F)cc(F)c2)nc2c(N)nc(C#CC(O)(CC)CC)nc21.Cl
3. CC(C)C(O)C#Cc1nc(N)c2nc(-c3cccc(F)c3)n(C)c2n1.Cl (stereo not drawn)
4. CCCn1c(-c2cccc(F)c2F)nc2c(N)nc(C#CC(O)(CC)CC)nc21.Cl
5. CN(C)c1ccc(-n2c(-c3cccc(F)c3)nc3c(N)nc(C#CC4(O)CCCCC4)nc32)cc1 (as salt: hydrochloride) [Example 3, Dihydrochloride]
6. Cl.Cn1c(-c2cc(F)ccc2F)nc2c(N)nc(C#CC(C)(C)O)nc21

["195 to 197 °C", "204 to 205 °C", "170 to 173 °C", "187 to 188 °C", "255 to 260 °C", "177 to 178 °C"]

Need melting point for each of these compounds.
1. Cl.Cn1c(-c2cccc(F)c2)nc2c(N)nc(/C=C/C3(O)CCC3)nc21
2. CC(C)(O)C#Cc1nc(N)c2nc(-c3cccc(F)c3)n(C3CC3)c2n1.Cl
3. CCCCC#Cc1nc(N)c2nc(-c3ccco3)n(C)c2n1.Cl
4. CC(C)C(C)(O)C#Cc1nc(N)c2nc(-c3cccc(F)c3)n(C)c2n1.Cl (stereo not drawn)
5. CCCn1c(-c2cc(F)cc(F)c2)nc2c(N)nc(C#CC3(O)CCCC3)nc21.Cl
6. CCn1c(-c2cccc(F)c2)nc2c(N)nc(C#CC3(O)CCCC3)nc21.Cl
7. CCCn1c(-c2cc(F)ccc2F)nc2c(N)nc(C#CC3(O)CCC3)nc21.Cl

1: 181 to 184 °C; 2: 143 to 145 °C; 3: 178 to 181 °C; 4: 191 to 192 °C; 5: 210 to 211 °C; 6: 188 to 191 °C; 7: 225 to 226 °C

Report melting point for every entry below.
1. Cl.Nc1nc(C#CC2(O)CCCC2)nc2c1nc(-c1cc(F)ccc1F)n2C1CC1
2. CCC(O)C#Cc1nc(N)c2nc(-c3cccc(F)c3)n(C)c2n1.Cl (stereo not drawn)
3. CCCn1c(-c2cc(F)cc(F)c2)nc2c(N)nc(C#CC(C)(C)O)nc21.Cl
4. COC1CCCCC1(O)C#Cc1nc(N)c2nc(-c3cccc(F)c3)n(C)c2n1 (stereo not drawn) [Example 120]

230 to 232 °C
171 to 175 °C
148 to 150 °C
281 to 283 °C
